# ASSAY_PROCEDURE: Absolute bioavailability of drospirenone after oral administration
# MEASUREMENT_CONDITIONS: female, human, in vivo; oral administration of 2 mg drospirenone, 8 young healthy women
MEASURED_PROPERTY: bioavailability
Give me the value, and tack the unit on after it.

Please fill in: bioavailability reported for C[C@]12CCC(=O)C=C1[C@@H]1C[C@@H]1[C@H]1[C@@H]3[C@@H]4C[C@@H]4[C@@]4(CCC(=O)O4)[C@@]3(C)CC[C@@H]12 [drospirenone] = 76%

---

# ASSAY_PROCEDURE: Relative bioavailability of drospirenone and ethinylestradiol from tablets versus oral suspension, open-label crossover study
# Type: in vivo
# MEASUREMENT_CONDITIONS: female, human, tablet 3 mg drospirenone + 0.03 mg ethinylestradiol, healthy women, serum concentrations, read-out: relative bioavailability from the tablets compared to the oral suspension
# Procedure: 42 healthy women between 18 and 35 years of age were included in an open-label crossover study after their informed consent had been obtained. […] The bioavailability was determined using serum concentrations of each active agent as parameters. […]
MEASURED_PROPERTY: bioavailability (%)
Unit % implied. Number only.

Please fill in: bioavailability reported for "C[C@]12CCC(=O)C=C1[C@@H]1C[C@@H]1[C@H]1[C@@H]3[C@@H]4C[C@@H]4[C@@]4(CCC(=O)O4)[C@@]3(C)CC[C@@H]12" = 107

Please fill in: bioavailability reported for "C#C[C@]1(O)CC[C@H]2[C@@H]3CCc4cc(O)ccc4[C@H]3CC[C@@]21C" = 117
